Tested on: mice
Assay: locomotor activity, 8-h time course protocol
Format: in vivo
Conditions: duration of locomotor activity
Parameter Locomotor Activity 8-Hour Time, min Period, length: see the listing below.
quantity_kind: Locomotor Activity 8-Hour Time, min Period, length

compound: CCN(CC)C(C)C(=O)c1cccc(Cl)c1 (stereo not shown) [Compound 2ee]
recorded_measurement: 130 to 240 min

compound: CC(C(=O)c1cccc(Cl)c1)N(C)C (stereo not shown) [Compound 2dd]
recorded_measurement: 180 to 190 min

compound: CCCCCCC(NC(C)(C)C)C(=O)c1cccc(Cl)c1 (stereo not shown) [Compound 2s]
recorded_measurement: 130 to 140 min

compound: CC(C)(C)NC(CCC1CCCCC1)C(=O)c1cccc(Cl)c1 (stereo not shown) [Compound 2u]
recorded_measurement: 60 to 160 min
